Data provenance: paper PMC5330453

target: UniProt:P37231; test: TR-FRET competitive binding assay (LanthaScreen), displacement of a fluorescent pan PPAR agonist tracer; conditions: hPPARγ LBD ligand displacement IC50, TR-FRET, GST-tagged PPARγ-LBD, 10 concentrations 3 nM to 500 μM, triplicate
Measured Attribute: IC50

Recorded IC50, per entry:
compound="COc1ccc(C2C(C#N)=C(N)Oc3[nH]nc(C)c32)c(C)c1C (stereo not shown) [10y]" measured_attribute=IC50 recorded_measurement="87 µM"
compound="Cc1cc(C)c([C@@H]2C(C#N)=C(N)Oc3n[nH]c(C)c32)cc1COc1ccc(Cl)cc1C (stereo in doubt) [compound 4]" measured_attribute=IC50 recorded_measurement="32 µM"
compound="Cc1nn(-c2ccccc2)c2c1C(c1ccc(Cl)cc1Cl)C(C#N)=C(N)O2 (stereo not shown) [10ag]" measured_attribute=IC50 recorded_measurement="14 µM"

# evaluate next
QUERY: Find the recorded IC50 belonging to Cc1ccc(C2C(C#N)=C(N)Oc3[nH]nc(-c4ccccc4)c32)c(C)c1 (stereo not shown) [10i] and report it.
RESULT: 75 µM

----------
Entries and their pIC50
biological target: hPPARγ LBD (Homo sapiens); experiment: TR-FRET competitive binding assay (LanthaScreen), displacement of a fluorescent pan PPAR agonist tracer; settings: hPPARγ LBD ligand displacement IC50, TR-FRET, GST-tagged PPARγ-LBD, 10 concentrations 3 nM to 500 μM, triplicate
Sequence (P37231 238-503 limits assumed): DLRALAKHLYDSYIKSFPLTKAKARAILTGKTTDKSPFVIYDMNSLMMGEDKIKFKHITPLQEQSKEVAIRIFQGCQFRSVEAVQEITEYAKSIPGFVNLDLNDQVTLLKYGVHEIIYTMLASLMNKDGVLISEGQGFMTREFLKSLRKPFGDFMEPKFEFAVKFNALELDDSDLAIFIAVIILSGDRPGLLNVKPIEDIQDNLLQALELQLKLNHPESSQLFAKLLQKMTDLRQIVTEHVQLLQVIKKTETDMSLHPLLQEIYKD
Scale: negative log10 of molar concentration, which is what pIC50 denotes.

Recorded pIC50, per entry:
molecule="Cc1n[nH]c2c1C(c1ccc(Cl)cc1Cl)C(C#N)=C(N)O2 (stereo not drawn) [10x]" experimental_target="hPPARγ LBD (Homo sapiens)" measured_attribute=pIC50 recorded_measurement=4.23
molecule="Cc1ccccc1C1C(C#N)=C(N)Oc2[nH]nc(Cc3ccccc3)c21 (stereo not drawn) [10b]" experimental_target="hPPARγ LBD (Homo sapiens)" measured_attribute=pIC50 recorded_measurement=4.80
molecule="CCCc1n[nH]c2c1C(c1ccc(C)cc1C)C(C#N)=C(N)O2 (stereo not drawn) [10m]" experimental_target="hPPARγ LBD (Homo sapiens)" measured_attribute=pIC50 recorded_measurement=4.85
molecule="CCCc1n[nH]c2c1C(c1cc(C)ccc1C)C(C#N)=C(N)O2 (stereo not drawn) [10p]" experimental_target="hPPARγ LBD (Homo sapiens)" measured_attribute=pIC50 recorded_measurement=4.04
molecule="CCCc1n[nH]c2c1C(c1ccc(Cl)cc1)C(C#N)=C(N)O2 (stereo not drawn) [10n]" experimental_target="hPPARγ LBD (Homo sapiens)" measured_attribute=pIC50 recorded_measurement=4.51

# evaluate next
QUERY: Please tell me: pIC50 of Cc1cc(C)c(C2C(C#N)=C(N)Oc3[nH]nc(C)c32)cc1COc1ccc(Cl)c2cccnc12 (stereo not drawn) [10s] , system hPPARγ LBD (Homo sapiens)?
RESULT: 4.85
